The measurements presented in this section are drawn from patent US20090035322A1.

- test-target: T1, mutant human CD20 #6 (Y77F, N166D) (human, UniProt P11836 1-297)
- T1 construct: Stably expressed on MG87 cells
- T1 chain: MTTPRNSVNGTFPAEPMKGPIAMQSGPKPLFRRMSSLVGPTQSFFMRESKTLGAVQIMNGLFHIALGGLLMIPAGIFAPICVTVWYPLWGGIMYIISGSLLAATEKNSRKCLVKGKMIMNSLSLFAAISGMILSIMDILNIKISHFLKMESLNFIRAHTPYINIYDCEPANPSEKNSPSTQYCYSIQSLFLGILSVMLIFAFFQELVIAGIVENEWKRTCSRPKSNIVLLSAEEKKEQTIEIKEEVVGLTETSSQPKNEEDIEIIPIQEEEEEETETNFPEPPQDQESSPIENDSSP
- assay-notes: FACS, mutant-hCD20 MG87 cells; 100%=best antibody
reported-endpoint: Percent of Binding to Mutant Human CD20 (%)

>>> reading("6F6-1 (antibody, V domains shown, Fully human IgG, constant region not specified; also called 6F6-1N) VH: AVQLVESGGGLVQPGRSLRLSCAASGFTFRDYAMHWVRQGPGKGLEWVSGISWNTDYIGYADSVKGRFTISRDNAKNSLYLQMNSLRPEDTALYYCAKDARYGRDNYYGMDVWGQGTTVTVSS VL: EIVMTQSPATLSVSPGERATLSCRASQSVSHNLAWYQQKPGQAPRLLIYGAYTRATGIPDRFSGTGSGTEFTLTISSLQSEDFAVFYCQQYNNWPLTFGGGTKVEIK")
16
